# EXPERIMENT_NOTES: SPR binding of NVA1309 to immobilized P4-derived peptides, RU400 as % of peptide P4
# MEASUREMENT_CONDITIONS: NVA1309 1 mM; P4 RU400=100%; P4 scanning (Example 6)
# Protocol: This peptide was covalently coupled via the carboxy-terminal cysteine to the surface (FC2) of a Biacore CM5 optical sensor chip as described in Example 4 following the Biacore thiol coupling procedure. Compound NVA1309 was injected as analyte at increasing concentrations and the binding reaction was monitored by generation of real time sensorgrams, presented as subtracted curves from the blank FC1 dextran reference surface (FIGS. 14A & 14B). […]
One threshold, 4%, splits the recorded % BINDING (RU400) 1 mM values: lower ones are y, equal or higher ones are n.

Worked cases, answers included:
IKAKLAATITQAGGGC (Peptide P11, P4 analogue - negatively charged side chains A-substituted + GGGC anchor) = n
IKAKLEETITQAGGGC (Peptide P4, carboxy-terminal VGGC_a2 region (II) + GGGC anchor) [carboxy-terminal VGGC_α2 region (II) + GGGC anchor, positive control] = n
LRVRIDDSLSNVGGGC (Peptide P9, P4 analogue - all aa substituted by most similar ones + GGGC anchor) = y

Query string: Please indicate whether the reported % BINDING (RU400) 1 mM of AQTITEELKAKIGGGC (Peptide P8, Inverse peptide P4 + GGGC anchor) is strictly below 4%.
Result string: y

Query string: Answer whether the sequence ETITQARYSETLKPGGGC (Peptide P6, carboxy-terminal VGGC_a2 region (IV) + GGGC anchor) [C-terminal P4 extension + GGGC anchor] has % BINDING (RU400) 1 mM strictly less than 4%
Result string: n

Query string: Lab note: confirm whether the reported % BINDING (RU400) 1 mM for this sequence is below 4%, equality not counting. sequence: IKAKLEEAIAQAGGGC (Peptide P12, P4 analogue - polar side chains A-substituted + GGGC anchor)
Result string: n

---

# % BINDING (RU400) 2 mM per entry
# EXPERIMENT_NOTES: SPR binding of NVA1309 to immobilized P4-derived peptides, RU400 as % of peptide P4
# MEASUREMENT_CONDITIONS: NVA1309 2 mM; P4=100%; Example 7
Remember to put the unit after the number in your answer.

IKAALEETITQAGGGC (Peptide P14, P4 analogue with Lysine in position 4 (K) substituted by Alanine (A) + GGGC anchor) [P4 analogue, K4 A-substituted + GGGC anchor] = 6%

Query string: Quick check: % BINDING (RU400) 2 mM of IKAKGGGC (Peptide P15, P4 analogue containing only the amino-terminal part of P4 + GGGC anchor) ?
Result string: 26%

Query string: Can you look up the measured % BINDING (RU400) 2 mM of IKAKLEETITQAGGGC (Peptide P4, carboxy-terminal VGGC_a2 region (II) + GGGC anchor) [carboxy-terminal VGGC_α2 region (II) + GGGC anchor, positive control] for me?
Result string: 100%

Query string: Bench note: what % BINDING (RU400) 2 mM did IAAKLEETITQAGGGC (Peptide P13, P4 analogue with Lysine in position 2 (K) substituted by Alanine (A) + GGGC anchor) [P4 analogue, K2 A-substituted + GGGC anchor] show?
Result string: 90%
